Some compounds, each annotated with its measured viability, T/C.
- Tested on: 997726-040-R-J2-PDC tumor spheroids, viability
- assayProtocol: Anticancer human tumor 997726-040-R-J2-PDC patient-derived squamous cell lung carcinoma cell line growth inhibition [PI3K]
- condition: second compound 0.01 µM; first compound 1 µM; active compounds read low; spheroids with HUVEC and MSC
reportedEndpoint: viability, T/C (%)

compound	recordedMeasurement
CC1(C)CCC(Nc2ncc(C(F)(F)F)c(-c3c[nH]c4c(P(C)(C)=O)c(C#N)ccc34)n2)CN1 (stereo not given) + COc1c(OCCCN2CCOCC2)ccc2c3n(c(=NC(=O)c4cnc(N)nc4)nc12)CCN3	30.5
CC(C)NCC(C(=O)N1CCN(c2ncnc3c2C(C)CC3O)CC1)c1ccc(Cl)cc1 (stereo not given) + CC(Nc1ccc2c(c1)OCCn1cc(N3C(=O)OCC3C(F)F)nc1-2)C(N)=O	30.3
C[C@@H](NC(=O)c1ncnc(N)c1Cl)c1ncc(C(=O)Nc2cc(C(F)(F)F)c(Cl)cn2)s1 + CC(Nc1ccc2c(c1)OCCn1cc(N3C(=O)OCC3C(F)F)nc1-2)C(N)=O	93.7
Cn1nccc1Nc1nccc(-c2ccn(C(CO)c3ccc(Cl)c(F)c3)c(=O)c2)n1 (stereo not given) + CC(Nc1ccc2c(c1)OCCn1cc(N3C(=O)OCC3C(F)F)nc1-2)C(N)=O	58.9
CCCS(=O)(=O)Nc1ccc(F)c(C(=O)c2c[nH]c3ncc(-c4ccc(Cl)cc4)cc23)c1F + COc1c(OCCCN2CCOCC2)ccc2c3n(c(=NC(=O)c4cnc(N)nc4)nc12)CCN3	76

* * *

- Tested on: 997726-040-R-J2-PDC tumor spheroids, viability
- assayProtocol: Anticancer human tumor 997726-040-R-J2-PDC cell line growth inhibition [PI3K];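 further: spheroids exposed to compounds for seven days before readout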
- condition: compound 0.0316 µM; active compounds read low; spheroids with HUVEC and MSC
Reported viability, T/C values are given for each entry in this list.
reportedEndpoint: viability, T/C

> print(dat)
                                    molecule  reportedendpoint       recordedmeasurement
 1  CC(C)NCC(C(=O)N1CCN(c2ncnc3c2C(C)CC3O)CC1)c1ccc(Cl)cc1 (stereo not drawn)    viability, T/C  88.5% [middle of 4 runs]
 2  CC(=O)c1c(C)c2cnc(Nc3ccc(N4CCNCC4)cn3)nc2n(C2CCCC2)c1=O    viability, T/C  82.2% [middle of 4 runs]
 3  CC(Nc1ccc2c(c1)OCCn1cc(N3C(=O)OCC3C(F)F)nc1-2)C(N)=O (stereo not drawn)    viability, T/C    61% [middle of 8 runs]
 4  CC(Nc1ncnc2nc[nH]c12)c1cc2cccc(Cl)c2c(=O)n1-c1ccccc1 (stereo not drawn)    viability, T/C   106% [middle of 8 runs]
 5  Cn1ncc(Cl)c1-c1cc(C(=O)NC(CN)Cc2cccc(F)c2)sc1Cl (stereo not drawn)    viability, T/C  84.3% [middle of 4 runs]
 6  CNC(=O)c1ccc(N2C(=S)N(c3ccc(C#N)c(C(F)(F)F)c3)C(=O)C2(C)C)cc1F    viability, T/C   109% [middle of 4 runs]
 7  Cc1nc(NC(=O)N2CCCC2C(N)=O)sc1-c1ccnc(C(C)(C)C(F)(F)F)c1 (stereo not drawn)    viability, T/C  91.9% [middle of 8 runs]
 8  CCN1CCN(Cc2ccc(Nc3ncc(F)c(-c4cc(F)c5nc(C)n(C(C)C)c5c4)n3)nc2)CC1    viability, T/C  74.3% [middle of 4 runs]
 9  Cn1nccc1Nc1nccc(-c2ccn(C(CO)c3ccc(Cl)c(F)c3)c(=O)c2)n1 (stereo not drawn)    viability, T/C  93.2% [middle of 4 runs]
10  CC1(C)CCC(Nc2ncc(C(F)(F)F)c(-c3c[nH]c4c(P(C)(C)=O)c(C#N)ccc34)n2)CN1 (stereo not drawn)    viability, T/C  45.6% [middle of 4 runs]
11  CC1(C)CCC(CN2CCN(c3ccc(C(=O)NS(=O)(=O)c4ccc(NCC5CCOCC5)c([N+](=O)[O-])c4)c(Oc4cnc5[nH]ccc5c4)c3)CC2)=C(c2ccc(Cl)cc2)C1    viability, T/C  98.4% [middle of 4 runs]
12  C=CC(=O)N1CCN(c2nc(=O)n(-c3c(C)ccnc3C(C)C)c3nc(-c4c(O)cccc4F)c(F)cc23)C(C)C1 (stereo not drawn)    viability, T/C   105% [middle of 4 runs]
13  C#Cc1c(F)ccc2cc(O)cc(-c3ncc4c(N5CC6CCC(C5)N6)nc(OCC56CCCN5CC(F)C6)nc4c3F)c12 (stereo not drawn)    viability, T/C   105% [middle of 4 runs]
14  Cn1ncnc1[C@H]1c2n[nH]c(=O)c3cc(F)cc(c23)N[C@@H]1c1ccc(F)cc1    viability, T/C   116% [middle of 4 runs]
15  CC(C)n1nc(-c2ccc3oc(N)nc3c2)c2c(N)ncnc21    viability, T/C  50.7% [middle of 4 runs]
16  COc1c(OCCCN2CCOCC2)ccc2c3n(c(=NC(=O)c4cnc(N)nc4)nc12)CCN3    viability, T/C  36.3% [middle of 8 runs]
17  CC(Cn1ccc(-c2ccc(C#N)c(Cl)c2)n1)NC(=O)c1cc(C(C)O)[nH]n1 (stereo not drawn)    viability, T/C   101% [middle of 4 runs]
18  CCCS(=O)(=O)Nc1ccc(F)c(C(=O)c2c[nH]c3ncc(-c4ccc(Cl)cc4)cc23)c1F    viability, T/C   103% [middle of 4 runs]

* * *

- Tested on: 997726-040-R-J2-PDC tumor spheroids, viability
- assayProtocol: Anticancer human tumor 997726-040-R-J2-PDC cell line growth inhibition [PI3K];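 further: spheroids exposed to compounds for seven days before readout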
- condition: second compound 0.01 µM; first compound 0.1 µM; active compounds read low; spheroids with HUVEC and MSC
// bucketize viability, T/C: lower segment: < 60%; middle segment: ≥ 60% and < 70%; upper segment: ≥ 70%

compound	group
CC(C)NCC(C(=O)N1CCN(c2ncnc3c2C(C)CC3O)CC1)c1ccc(Cl)cc1 (stereo not drawn) + CC(Nc1ccc2c(c1)OCCn1cc(N3C(=O)OCC3C(F)F)nc1-2)C(N)=O	middle segment
C[C@@H](NC(=O)c1ncnc(N)c1Cl)c1ncc(C(=O)Nc2cc(C(F)(F)F)c(Cl)cn2)s1 + CC(Nc1ccc2c(c1)OCCn1cc(N3C(=O)OCC3C(F)F)nc1-2)C(N)=O	upper segment
C=CC(=O)N1CCN(c2nc(=O)n(-c3c(C)ccnc3C(C)C)c3nc(-c4c(O)cccc4F)c(F)cc23)C(C)C1 (stereo not drawn) + COc1c(OCCCN2CCOCC2)ccc2c3n(c(=NC(=O)c4cnc(N)nc4)nc12)CCN3	lower segment
CCN1CCN(Cc2ccc(Nc3ncc(F)c(-c4cc(F)c5nc(C)n(C(C)C)c5c4)n3)nc2)CC1 + CC(Nc1ccc2c(c1)OCCn1cc(N3C(=O)OCC3C(F)F)nc1-2)C(N)=O	middle segment
C#Cc1c(F)ccc2cc(O)cc(-c3ncc4c(N5CC6CCC(C5)N6)nc(OCC56CCCN5CC(F)C6)nc4c3F)c12 (stereo not drawn) + COc1c(OCCCN2CCOCC2)ccc2c3n(c(=NC(=O)c4cnc(N)nc4)nc12)CCN3	lower segment
CC(=O)c1c(C)c2cnc(Nc3ccc(N4CCNCC4)cn3)nc2n(C2CCCC2)c1=O + CC(Nc1ccc2c(c1)OCCn1cc(N3C(=O)OCC3C(F)F)nc1-2)C(N)=O	lower segment
CC1(C)CCC(Nc2ncc(C(F)(F)F)c(-c3c[nH]c4c(P(C)(C)=O)c(C#N)ccc34)n2)CN1 (stereo not drawn) + CC(Nc1ccc2c(c1)OCCn1cc(N3C(=O)OCC3C(F)F)nc1-2)C(N)=O	lower segment
Cn1ncnc1[C@H]1c2n[nH]c(=O)c3cc(F)cc(c23)N[C@@H]1c1ccc(F)cc1 + CC(Nc1ccc2c(c1)OCCn1cc(N3C(=O)OCC3C(F)F)nc1-2)C(N)=O	upper segment
CC(C)n1nc(-c2ccc3oc(N)nc3c2)c2c(N)ncnc21 + COc1c(OCCCN2CCOCC2)ccc2c3n(c(=NC(=O)c4cnc(N)nc4)nc12)CCN3	lower segment
Cn1ncc(Cl)c1-c1cc(C(=O)NC(CN)Cc2cccc(F)c2)sc1Cl (stereo not drawn) + CC(Nc1ccc2c(c1)OCCn1cc(N3C(=O)OCC3C(F)F)nc1-2)C(N)=O	lower segment
C#Cc1c(F)ccc2cc(O)cc(-c3ncc4c(N5CC6CCC(C5)N6)nc(OCC56CCCN5CC(F)C6)nc4c3F)c12 (stereo not drawn) + CC(Nc1ccc2c(c1)OCCn1cc(N3C(=O)OCC3C(F)F)nc1-2)C(N)=O	upper segment

* * *

Let's look at some compounds and their measured viability, T/C.
- Test system: 997726-040-R-J2-PDC tumor spheroids, viability
- assayProtocol: Anticancer human tumor 997726-040-R-J2-PDC cell line growth inhibition [PI3K];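 further: spheroids exposed to compounds for seven days before readout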
- condition: second compound 0.0316 µM; first compound 0.03 µM; active compounds read low; spheroids with HUVEC and MSC
reportedEndpoint: viability, T/C (%)

> print(dat)
                                   compound  quantityunit  recordedmeasurement
1  Cn1cnc2c(F)c(Nc3ccc(Br)cc3Cl)c(C(=O)NOCCO)cc21 + CC(Nc1ccc2c(c1)OCCn1cc(N3C(=O)OCC3C(F)F)nc1-2)C(N)=O             %                 50.8
2  Cn1cnc2c(F)c(Nc3ccc(Br)cc3Cl)c(C(=O)NOCCO)cc21 + CC(Nc1ncnc2nc[nH]c12)c1cc2cccc(Cl)c2c(=O)n1-c1ccccc1             %                 64.8
3  Cn1cnc2c(F)c(Nc3ccc(Br)cc3Cl)c(C(=O)NOCCO)cc21 + COc1c(OCCCN2CCOCC2)ccc2c3n(c(=NC(=O)c4cnc(N)nc4)nc12)CCN3             %                 33.4
4  Cn1cnc2c(F)c(Nc3ccc(Br)cc3Cl)c(C(=O)NOCCO)cc21 + Cc1nc(NC(=O)N2CCCC2C(N)=O)sc1-c1ccnc(C(C)(C)C(F)(F)F)c1             %                 58.5
